B1: PPP2R2B (parent)
chain: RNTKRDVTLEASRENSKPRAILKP

- Variants of: B1
- experimental-protocol: protein stability index of a GFP-peptide fusion (GPS, HEK-293T) (PSI 1-6); higher = more stable;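 further: lentivirally expressed fusions sorted by FACS into six bins by GFP to DsRed ratio, PSI derived from sequencing read proportions per bin multiplied by bin number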
- test-conditions: c terminus: a fixed tail appended
measurement-label: protein stability index
No unit in the answer, please; the number alone is enough.

Worked examples, 3 variants total:
>>> recorded_result("K23I")
4.04
>>> recorded_result("S12W")
3.79
>>> recorded_result("E10K")
4.52

// query For P24E , what is its reported protein stability index?
// result 4.74

// query And what about the variant K4T ?
// result 4.82

// query Now consider E14V .
// result 3.79

// query How about P18D ?
// result 5.07

// query Okay, and L22I ?
// result 4.2
